Hello, the source for this data is the supplement of paper PMC10567573, in case you need it.

B1: POMT2 (parent)
chain: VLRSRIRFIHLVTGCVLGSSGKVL

# Variants of: B1
# runDescription: protein stability index of a GFP-peptide fusion (GPS, HEK-293T) (PSI 1-6); higher = more stable;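 also: lentivirally expressed fusions sorted by FACS into six bins by GFP to DsRed ratio, PSI derived from sequencing read proportions per bin multiplied by bin number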
# conditionSet: c terminus: a fixed tail appended
reportedEndpoint: protein stability index
Reply with just the number.

   variantidentifier  observedmeasurement
0                S4E                 2.36
1               G18L                 2.69
2               L24M                 2.42

Query: Any idea what protein stability index was measured for T13P ?
Reply: 4.82

Query: Name the recorded protein stability index for R5G .
Reply: 2.25

Query: Entry I6Y : reported protein stability index = ?
Reply: 3.93
